Values were extracted from paper PMC12040169.

Experiment: in vitro
Conditions: human, hela cells, % viability
Sorting guide: entries reporting viability at 28.5 h, 10 µM beneath 90% go in the yes (1) pile, the rest go in the no (0) pile.

input: Problem: For the compound Cc1ccc(NC(=O)Nc2ccc3cc(Br)cnc3n2)c(C)c1 , is viability at 28.5 h, 10 µM under 90%?
output: yes (1)

input: Problem: For the compound Cc1csc(C(Cc2ccsc2)NC(=O)C2CC3C=CC2O3)n1 (stereo not shown) , is viability at 28.5 h, 10 µM under 90%?
output: no (0)

input: Problem: For the compound CN(C)CCCNC(=O)C1CCN(c2nc3c(-c4ccccc4F)csc3c(=O)[nH]2)CC1 , is viability at 28.5 h, 10 µM under 90%?
output: no (0)

input: Problem: For the compound c1ncc(OC2CCN(CCN3CCOCC3)C2)nc1OCCN1CCOCC1 (stereo not shown) , is viability at 28.5 h, 10 µM under 90%?
output: no (0)

input: Problem: For the compound Cc1nn(Cc2ccc(F)cc2)c(=O)c2cc3sccc3n12 , is viability at 28.5 h, 10 µM under 90%?
output: yes (1)

input: Problem: For the compound CCN1CCC2(CC1)NC(=O)Cc1ccccc12 , is viability at 28.5 h, 10 µM under 90%?
output: no (0)

input: Problem: For the compound N=c1n(CCN2CCCC2)c2ccccc2n1CC(O)c1ccc(Cl)c(Cl)c1 (stereo not shown) [CBK263448C] , is viability at 28.5 h, 10 µM under 90%?
output: yes (1)

input: Problem: For the compound COC(=O)[C@H]1Cc2cc3c(cc2[C@H]1c1cc(OC)c(OC)c(OC)c1)OCO3 , is viability at 28.5 h, 10 µM under 90%?
output: yes (1)

input: Problem: For the compound CN1C(=O)COc2ccccc2CCCC[C@@H]2[C@H]1CCCN2C(=O)Cn1ccnc1 , is viability at 28.5 h, 10 µM under 90%?
output: no (0)

input: Problem: For the compound O=C(N[C@H]1CC[C@H](O)CC1)C1(Cc2cc(-c3ccc(F)cc3F)no2)CCOCC1 , is viability at 28.5 h, 10 µM under 90%?
output: no (0)

input: Problem: For the compound CC(C)(C)c1nnc(NCc2ccccc2)s1 , is viability at 28.5 h, 10 µM under 90%?
output: no (0)

input: Problem: For the compound COc1cc(Cl)cc(C2NC(=S)NC(c3ccccc3)=C2C(=O)c2ccccc2)c1OCC(=O)O (stereo not shown) , is viability at 28.5 h, 10 µM under 90%?
output: no (0)

input: Problem: For the compound CC(CCc1ccccc1)NC(=O)c1ccccc1C(=O)O (stereo not shown) , is viability at 28.5 h, 10 µM under 90%?
output: no (0)

input: Problem: For the compound Fc1cccc(-c2nccnc2NCC2CC2)c1 , is viability at 28.5 h, 10 µM under 90%?
output: no (0)
